Sourced from ChEMBL document CHEMBL1759971

# target-of-assay: 11-beta-hydroxysteroid dehydrogenase 1 (Homo sapiens)
# Sequence (P28845 whole entry): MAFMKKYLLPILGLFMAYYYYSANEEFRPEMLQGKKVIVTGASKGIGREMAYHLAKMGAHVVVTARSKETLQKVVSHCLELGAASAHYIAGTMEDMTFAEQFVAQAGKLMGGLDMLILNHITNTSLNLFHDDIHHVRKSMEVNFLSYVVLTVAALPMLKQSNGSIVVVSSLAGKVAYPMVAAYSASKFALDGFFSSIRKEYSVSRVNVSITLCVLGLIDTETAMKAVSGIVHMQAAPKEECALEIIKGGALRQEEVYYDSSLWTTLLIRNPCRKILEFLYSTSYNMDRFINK
# protocol-details: Inhibition of human 11beta-HSD1 expressed in CHO-K1 cells assessed as conversion of [3H]cortisone to [3H]cortisol by scintillation counting
quantity-measured: pIC50
Lab note — pIC50 values are minus log10 of concentrations in M.

Observe how each entry below is paired with its result.
{"compound": "Cn1c(-c2ccc(C(=O)NC3CCC3)cc2)nnc1C1(c2ccc(Cl)cc2)CCC1", "target-of-assay": "11-beta-hydroxysteroid dehydrogenase 1 (Homo sapiens)", "pIC50": 6.33}
{"compound": "Cc1cc(C(=O)Nc2ccc(-c3nnc(C4(c5ccc(Cl)cc5)CCC4)n3C)cc2)c(C)o1", "target-of-assay": "11-beta-hydroxysteroid dehydrogenase 1 (Homo sapiens)", "pIC50": 8.02}
{"compound": "Cn1c(-c2ccc(-c3cnccn3)cc2OC(F)F)nnc1C1(c2ccc(Cl)cc2)CCC1", "target-of-assay": "11-beta-hydroxysteroid dehydrogenase 1 (Homo sapiens)", "pIC50": 8.43}

Ask | Any idea what its pIC50 is? The compound is `Cn1c(-c2ccc(-c3ccc(Cl)nn3)cc2)nnc1C1(c2ccc(Cl)cc2)CCC1`
Reply | 8.82

Ask | Entry to check: `Cn1c(-c2ccc(-c3cnccn3)cc2)nnc1C1(c2ccc(Cl)cc2)CCC1`
Reply | 8.64

Ask | Another compound to check: `Cn1c(-c2ccc(-c3cnccn3)cc2C(N)=O)nnc1C1(c2ccc(Cl)cc2)CCC1`
Reply | 6.92

Ask | Ok, now `Cn1c(-c2ccc(NC(=O)c3cnccn3)cc2)nnc1C1(c2ccc(Cl)cc2)CCC1`
Reply | 7.16

Ask | Same thing, different compound: `Cn1c(-c2ccc(-c3cnc(N)nc3)cc2)nnc1C1(c2ccc(Cl)cc2)CCC1`
Reply | 8.66

Ask | Try this compound too: `C1CCCn2c(nnc2C23CC4CC(CC(C4)C2)C3)CC1`
Reply | 8.11

Ask | Same thing, different compound: `CCNC(=O)c1ccc(-c2nnc(C3(c4ccc(Cl)cc4)CCC3)n2C)cc1`
Reply | 7.16

Ask | Cool, now `Cn1c(-c2ccc(NC(=O)c3ccno3)cc2)nnc1C1(c2ccc(Cl)cc2)CCC1`
Reply | 8.10

Ask | `CC(=O)Nc1ccc(-c2nnc(C3(c4ccc(Cl)cc4)CCC3)n2C)cc1` , same question.
Reply | 8.24

Ask | Note, next up: `Cn1c(-c2ccc(C(=O)O)cc2Cl)nnc1C1(c2ccc(Cl)cc2)CCC1`
Reply | 7.96

Ask | Same thing, different compound: `Cn1c(-c2ccc(C(=O)O)cc2)nnc1C1(c2ccc(Cl)cc2)CCC1`
Reply | 7.12

Ask | And what about the compound `Cn1c(-c2ccc(-c3ccon3)cc2)nnc1C1(c2ccc(Cl)cc2)CCC1` ?
Reply | 7.96

Ask | Request: `Cn1c(-c2ccc(-c3cccnc3)cc2F)nnc1C1(c2ccc(Cl)cc2)CCC1`
Reply | 8.74

Ask | How about `Cn1c(-c2ccc(-c3cccnc3)cc2O)nnc1C1(c2ccc(Cl)cc2)CCC1` ?
Reply | 7.42

Ask | Similarly, `COc1cc(-c2cccnc2)ccc1-c1nnc(C2(c3ccc(Cl)cc3)CCC2)n1C` ?
Reply | 8.82

Ask | And for `Cn1c(-c2ccc(-c3cnc(O)nc3)cc2)nnc1C1(c2ccc(Cl)cc2)CCC1` ?
Reply | 8.92

Ask | Proceed to `Cn1c(-c2ccc(-c3cncnc3)cc2)nnc1C1(c2ccc(Cl)cc2)CCC1`
Reply | 8.82

Ask | `Cn1c(-c2ccc(C(=O)NC3CC3)cc2)nnc1C1(c2ccc(Cl)cc2)CCC1` , same question.
Reply | 6.52

Ask | Please answer likewise for `Cn1c(-c2ccc(C(=O)N3CCOCC3)cc2)nnc1C1(c2ccc(Cl)cc2)CCC1`
Reply | 6.25

Ask | One more compound: `Cn1c(-c2ccc(-c3cnccn3)cc2F)nnc1C1(c2ccc(Cl)cc2)CCC1`
Reply | 8.55

Ask | Try `Cn1c(-c2ccc(NC(=O)c3cccs3)cc2)nnc1C1(c2ccc(Cl)cc2)CCC1` next.
Reply | 8.06

Ask | Follow-up item: `Cn1c(-c2ccc(-c3cc(=O)[nH]cn3)cc2)nnc1C1(c2ccc(Cl)cc2)CCC1`
Reply | 8.06

Ask | Next entry: `Cn1c(-c2ccc(C(N)=O)cc2C(N)=O)nnc1C1(c2ccc(Cl)cc2)CCC1`
Reply | 8.66

Ask | Same for Cn1c(-c2ccc(-c3cnccn3)cc2Cl)nnc1C1(c2ccc(Cl)cc2)CC(F)C1 (stereo not drawn)
Reply | 8.26

Ask | Input `Cn1c(-c2ccc(C(=O)N3CCC3)cc2)nnc1C1(c2ccc(Cl)cc2)CCC1`
Reply | 6.60

Ask | `Cc1noc(C)c1-c1ccc(-c2nnc(C3(c4ccc(Cl)cc4)CCC3)n2C)cc1` ?
Reply | 8.32

Ask | Now consider `Cn1c(-c2ccc(-c3cnoc3)cc2)nnc1C1(c2ccc(Cl)cc2)CCC1` .
Reply | 8.96

Ask | Also, `COc1ncc(-c2ccc(-c3nnc(C4(c5ccc(Cl)cc5)CCC4)n3C)cc2)c(OC)n1` please.
Reply | 7.85
